Known pIC50 of a selection of compounds
Target: BRD4 BD2 (Homo sapiens (Human), UniProt O60885)
Test: NanoBRET bromodomain assay, NanoLuc-BRD4-BD2 fusion in HEK293 cells;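 also: tracer displacement BRET read in transfected cells after 2 h compound exposure at 37 °C, signal in milliBRET units corrected against no-tracer background wells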
Details: BRD4 BD2 (IC50), NanoBRET, HEK293 cells, top concentration 10 μM
pIC50: −log10 of the molar value.

Below: 8 compounds and their reported pIC50.
1) CNC(=O)c1[nH]c(C(=O)N[C@H]2CC[C@H](OC)CC2)cc1OC(C)c1ccccc1 (single isomer, unassigned) [Example 99] : 6.70 to 7.30
2) CCNC(=O)c1cc(OC(C)c2ccc(Cl)cc2)c(C(=O)NC)[nH]1 (single isomer, unassigned) [Example 18] : > 7.30
3) CNC(=O)c1[nH]c(-c2cnn(C)c2)cc1O[C@@H](C)c1ccccc1 : 6.70 to 7.30
4) CNC(=O)c1[nH]c(C(=O)NCC(F)(F)F)cc1O[C@@H](C)c1ccc(Cl)cc1 : 6.70 to 7.30
5) CNC(=O)c1[nH]c(C(=O)NC2CCC2)cc1OC(C)c1ccccc1 (single isomer, unassigned) : < 5.00
6) CNC(=O)c1[nH]c(-c2cc(C)nn2C)cc1O[C@H](C)c1ccccc1 : < 5.00
7) CCNC(=O)c1cc(OC(C)c2ccccc2)c(C(=O)NC)[nH]1 (racemic) : 6.00 to 6.70
8) CNC(=O)c1[nH]c(C(=O)NC2COC2)cc1OC(C)c1ccccc1F (single isomer, unassigned) : 6.70 to 7.30

Looking up CCNC(=O)c1cc(OC(C)c2ccc(Br)cc2)c(C(=O)NC)[nH]1 (single isomer, unassigned) [Example 50] , I see its pIC50 listed as < 5.00

Looking up `CNC(=O)c1[nH]c(C(=O)NC(C)C)cc1O[C@@H](C)c1ccccc1` , I see its pIC50 listed as 6.00 to 6.70

Looking up CNC(=O)c1[nH]c(C(=O)NC2CCC2)cc1OC(C)c1ccc(Cl)cc1F (single isomer, unassigned) , I see its pIC50 listed as > 7.30

Looking up `CNC(=O)c1[nH]c(-c2ccc(F)cc2F)cc1O[C@@H](C)c1ccccc1` , I see its pIC50 listed as 5.00 to 6.00

----------
Biological target: BRD4 BD2 (Homo sapiens (Human))
Assay: NanoBRET bromodomain assay, NanoLuc-BRD4-BD2 fusion in HEK293 cells
Conditions: IC50 for BRD4 BD1 divided by IC50 for BRD4 BD2; qualitative if an IC50 is at the upper limit
measured.property: Fold selectivity

Below: 4 compounds and their reported Fold selectivity.
1) CNC(=O)c1[nH]c(C(=O)N[C@H]2CC[C@H](O)CC2)cc1OC(C)c1ccccc1 (single isomer, unassigned) [Example 98] : — (Fold ≥0 and ≤2)
2) CNC(=O)c1[nH]c(C(=O)N[C@H]2CC[C@H](OC)CC2)cc1OC(C)c1ccccc1 (single isomer, unassigned) [Example 100] : — (Fold ≥0 and ≤2)
3) CNC(=O)c1[nH]c(C(=O)N[C@@H]2CC[C@@H](O)C2)cc1O[C@@H](C)c1ccccc1 (racemic) : XX (Fold >50 and ≤200)
4) CNC(=O)c1[nH]c(C(=O)N[C@H]2CC[C@H](OC)CC2)cc1OC(C)c1ccccc1 (single isomer, unassigned) [Example 99] : XX (Fold >50 and ≤200)

Looking up CCNC(=O)c1cc(OC(C)c2cccc(C(F)(F)F)c2)c(C(=O)NC)[nH]1 (racemic) , I see its Fold selectivity listed as X (Fold >2 and ≤50)

Looking up `CNC(=O)c1[nH]c(-c2ccc(F)cc2F)cc1O[C@@H](C)c1ccccc1` , I see its Fold selectivity listed as X (Fold >2 and ≤50)

Looking up CCNC(=O)c1cc(OC(C)c2ccccc2F)c(C(=O)NC)[nH]1 (racemic) [Example 124] , I see its Fold selectivity listed as XX (Fold >50 and ≤200)
